biological target: BChE (EC 3.1.1.8) from horse serum (Equus caballus); construct: horse serum BChE (eqBChE, Sigma-Aldrich); purchased Sigma-Aldrich; host or cells: horse serum; assay: biochemical; settings: eqBChE; mean ± SEM of triplicate independent experiments; read-out: BChE IC50
Sequence (P81908 whole entry): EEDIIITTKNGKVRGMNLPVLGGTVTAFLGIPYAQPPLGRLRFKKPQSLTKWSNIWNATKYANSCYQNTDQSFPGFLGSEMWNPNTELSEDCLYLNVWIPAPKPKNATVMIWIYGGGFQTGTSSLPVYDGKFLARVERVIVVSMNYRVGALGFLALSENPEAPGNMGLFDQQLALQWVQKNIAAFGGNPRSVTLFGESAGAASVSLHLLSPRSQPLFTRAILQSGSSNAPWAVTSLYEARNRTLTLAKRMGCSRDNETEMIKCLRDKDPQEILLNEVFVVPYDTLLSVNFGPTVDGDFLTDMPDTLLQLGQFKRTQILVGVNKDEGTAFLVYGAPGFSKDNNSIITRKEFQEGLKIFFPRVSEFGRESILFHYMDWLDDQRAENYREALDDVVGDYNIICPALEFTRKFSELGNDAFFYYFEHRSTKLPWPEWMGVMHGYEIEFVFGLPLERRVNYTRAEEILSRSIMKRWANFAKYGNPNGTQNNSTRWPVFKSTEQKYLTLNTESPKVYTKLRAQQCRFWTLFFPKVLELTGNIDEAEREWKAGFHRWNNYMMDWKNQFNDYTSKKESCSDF
pIC50: −log10 of the molar value.
Returns Satisfied if the recorded pIC50 is greater than or equal to 6, and Not satisfied otherwise.

Prompt: Can `Cn1c(=O)n(C)c2cc(C(=O)NCC3CCN(Cc4cccc(F)c4)CC3)ccc21` be said to have pIC50 at or above 6?
Completion: Not satisfied

Prompt: Item: Cn1c(=O)n(C)c2cc(S(=O)(=O)NCC3CCN(Cc4ccc(Cl)cc4)CC3)ccc21 [Compound 15h]
Completion: Not satisfied

Prompt: Item: Cn1c(=O)n(C)c2cc(S(=O)(=O)NCC3CCN(Cc4cccc(Br)c4)CC3)ccc21 [Compound 15j]
Completion: Satisfied

Prompt: Item: Cn1c(=O)n(C)c2cc(S(=O)(=O)NCC3CCN(Cc4ccccc4)CC3)ccc21 [Compound 15a]
Completion: Satisfied

Prompt: Item: `Cn1c(=O)n(C)c2cc(C(=O)NCC3CCN(Cc4ccc(F)cc4)CC3)ccc21`
Completion: Not satisfied

Prompt: Item: Cc1cccc(CN2CCC(CNS(=O)(=O)c3ccc4c(c3)n(C)c(=O)n4C)CC2)c1 [Compound 15c]
Completion: Satisfied

Prompt: Item: COc1cccc(CN2CCC(CNS(=O)(=O)c3ccc4c(c3)n(C)c(=O)n4C)CC2)c1 [Compound 15e]
Completion: Not satisfied

Prompt: Item: Cc1ccc(CN2CCC(CNS(=O)(=O)c3ccc4c(c3)n(C)c(=O)n4C)CC2)cc1 [Compound 15d]
Completion: Not satisfied

Prompt: Item: Cn1c(=O)n(C)c2cc(S(=O)(=O)NCC3CCN(Cc4ccccc4Br)CC3)ccc21 [Compound 15i]
Completion: Satisfied

====

biological target: BChE (EC 3.1.1.8) from horse serum (Equus caballus); construct: horse serum BChE (eqBChE, Sigma-Aldrich); purchased Sigma-Aldrich; host or cells: horse serum; test: biochemical; settings: eqBChE; compound at 100 μM; read-out: BChE IR (inhibitory rate)
Returns true if the recorded inhibition at 100 µM is greater than or equal to 40%, and false otherwise.

Prompt: Can COc1ccc(CN2CCC(CNC(=O)c3ccc4[nH]ncc4c3)CC2)cc1 [Compound 11b] be said to have inhibition at 100 µM at or above 40%?
Completion: true

Prompt: Item: Cn1c(=O)n(C)c2cc(C(=O)NCC3CCN(Cc4cccc(Cl)c4)CC3)ccc21 [Compound 9l]
Completion: false

Prompt: Item: Cc1cccc(CN2CCC(CNC(=O)c3ccc4c(c3)n(C)c(=O)n4C)CC2)c1 [Compound 9c]
Completion: true

Prompt: Item: COc1ccc(CN2CCC(CNC(=O)c3ccc4[nH]cnc4c3)CC2)cc1 [Compound 11d]
Completion: false

Prompt: Item: Cn1c(=O)n(C)c2cc(C(=O)NCC3CCN(Cc4ccc(Br)cc4)CC3)ccc21 [Compound 9p]
Completion: false

Prompt: Item: Cn1c(=O)n(C)c2cc(C(=O)NCC3CCN(Cc4ccccc4Cl)CC3)ccc21 [Compound 9k]
Completion: true

Prompt: Item: COc1cccc(CN2CCC(CNC(=O)c3ccc4c(c3)n(C)c(=O)n4C)CC2)c1 [Compound 9f]
Completion: false

Prompt: Item: Cc1ccc(CN2CCC(CNC(=O)c3ccc4c(c3)n(C)c(=O)n4C)CC2)cc1 [Compound 9d]
Completion: false

Prompt: Item: COc1ccc(CN2CCC(CNC(=O)c3ccc4c(c3)n(C)c(=O)n4C)CC2)cc1 [Compound 9g]
Completion: true

Prompt: Item: Cc1ccc(CN2CCC(CNC(=O)c3ccc4c(c3)n(C)c(=O)n4C)CC2)cc1C [Compound 9e]
Completion: false

Prompt: Item: Cn1c(=O)n(C)c2cc(C(=O)NCC3CCN(Cc4ccccc4Br)CC3)ccc21 [Compound 9n]
Completion: true

Prompt: Item: Cc1ccccc1CN1CCC(CNC(=O)c2ccc3c(c2)n(C)c(=O)n3C)CC1 [Compound 9b]
Completion: true

Prompt: Item: Cn1c(=O)n(C)c2cc(C(=O)NCC3CCN(Cc4ccccc4)CC3)ccc21 [Compound 9a]
Completion: true

Prompt: Item: Cn1c(=O)n(C)c2cc(C(=O)NCC3CCN(Cc4ccccc4F)CC3)ccc21 [Compound 9h]
Completion: false
